In this section we review reported % INHIBITION (C = 10^−6 M) values for a set of compounds.
# Tested on: C5a-induced chemotaxis of PMN
# Procedure Text: Inhibition of C5a-induced chemotaxis of human PMNs (microchamber)
# Assay type: cell-based
# Details: compound C = 10^−6 M, C5a 10^−9 M, 60 min at 37° C.
Express the result in % but write the number alone.

Worked examples, 3 compounds total:
> print(dat)
                           substance.smiles              target.under.test  endpoint.unit  experimental.result
1  CC(C)Cc1ccc([C@@H](C)C(=O)NCCC[N+](C)(C)Cc2ccccc2)cc1.[I-]  C5a-induced chemotaxis of PMN              %                   22
2  CC(C)Cc1ccc([C@@H](C)C(=O)NCCC[N+](C)(C)C)cc1.[I-]  C5a-induced chemotaxis of PMN              %                   53
3  CC(C)Cc1ccc([C@@H](C)C(=O)NCCC[N+](C)(C)CC2CCCCC2)cc1.CS(=O)(=O)[O-]  C5a-induced chemotaxis of PMN              %                   57

Qu. Determine from records and report % INHIBITION (C = 10^−6 M) for CC(C)Cc1ccc([C@@H](C)C(=O)NCCC[N+]2(C)CCCCC2)cc1.[I-]
Ans. 24
